Values were extracted from ChEMBL document CHEMBL5104108.

Listing of entries alongside the reported SI.
Assay: Selectivity index, ratio IC50 for antiproliferative activity against human HCV-29 cells over IC50 for antiproliferative activity against human T24 cells
Type: toxicity, cell-based
Conditions: HCV-29 cells versus T24 cells
Reply with the value as a number alone.

Previously resolved entries follow.
INSERT INTO measurements (sample_smiles, measured_attribute, recorded_value) VALUES
  ('COc1ccc(NC(=O)Nc2cccc(CNc3nccnc3Cl)c2)cc1', 'SI', 2.13),
  ('Cc1ccc(NC(=O)Nc2cccc(CNc3nccnc3Cl)c2)cc1', 'SI', 2.05);

Let us move to another entry and its SI.
Request: // SI lookup, key: O=C(Nc1cccc(CNc2nccnc2Cl)c1)Nc1cccc(C(F)(F)F)c1
Result: 5.64

---

Measured AUC(0-t) at 48 h, listed per entry for reference.
Experiment: AUC (0 to 48 hrs) in Sprague-Dawley rat at 12 mg/kg, IG measured HPLC analysis
Assay type: ADME, organism-based
Design: time < 48 hr, dose 12 mg/kg, route ig
Settings: in vivo, po
Write down the numeric answer in ng·h/mL and omit the unit.

INSERT INTO measurements (sample_smiles, recorded_value) VALUES
  ('CNC(=O)c1cc(Oc2ccc(NC(=O)Nc3ccc(Cl)c(C(F)(F)F)c3)c(F)c2)ccn1', 50700);

Continue with the next compound.
Request: Requested field: AUC(0-t) at 48 h. Item: O=C(Nc1ccc(C(F)(F)F)cc1)Nc1cccc(CNc2nccnc2Cl)c1
Result: 75800
